# Test system: N140
# experiment-summary: qHTS profiling for inhibitors of Plasmodium falciparum proliferation (AID 504749);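 also: 0% = DMSO vehicle and full inhibition = artemisinin control; nearly all actives have a fitted effect of over 60% in size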
# run-conditions: P. falciparum in erythrocytes, SYBR Green DNA, 72 h; series mostly up to 12.8 µM
# Description: NIH National Institute of Allergy and Infectious Diseases [NIAID] NIH Chemical Genomics Center [NCGC] […] Because mature erythrocytes lack DNA, only Plasmodium-derived DNA is detected. NCGC Assay Protocol Summary: The SYBR Green viability assay was adapted from a method described previously (Plouffe et al., 2008). […] The following morning, fluorescence intensity at 485(14) nm excitation and 535(25) nm emission wavelengths was measured on an EnVision (Perkin Elmer) plate reader. […]
Results filed as inconclusive are left out. Activity calls are given as the source filed them. Calls follow the shape of the dose curve; as a rule, active = well fitted inhibition curve with a large enough effect; inconclusive = small, poorly fitted or top-dose-only effect; inactive = flat fitted curve, though single readings scatter.
Outcome (select one): true (1) (active), false (0) (inactive)

Can you look up the reported call for NCC1CCC(N)C(O[C@@H]2C(O)[C@H](O[C@H]3OC(CO)C(O)C(N)C3O)[C@@H](N)C[C@H]2N)O1 (some centres undefined) for me?
false (0)

How was COc1ccc([C@@H]2CC(=O)c3c(O)cc(O[C@H]4O[C@@H](CO[C@H]5O[C@@H](C)[C@@H](O)[C@@H](O)[C@@H]5O)[C@@H](O)[C@@H](O)[C@@H]4O)cc3O2)cc1O classified in this test?
false (0)

Hi, do you know how CCOC(=O)[C@H](CCc1ccccc1)N[C@@H](C)C(=O)N1[C@H](C(=O)O)C[C@H]2CCC[C@@H]21 came out in this test?
false (0)

Check the results log: what was the call for CS(=O)(=O)c1ccc([C@H](O)[C@H](CO)NC(=O)C(Cl)Cl)cc1 ?
false (0)

Lab log entry: COc1ccc2cc(C(C)CO)ccc2c1 (centres undefined) — outcome as called in the assay?
false (0)

* * *

# experiment-summary: qHTS drug screen for cell cycle checkpoint inhibitors in PARPi-resistant BRCA-mutant ovarian cancer cell lines. (AID 1963452)
# run-conditions: PEO1/OlaR viability, CellTiter-Glo luminescence, 96 h; measured here: PEO1 parental Z-AUC; stronger effect = lower value
So basically, the class depends on measured Z-AUC, and the ranges are low range: < -0.2; mid range: ≥ -0.2 and < 0.4; high range: ≥ 0.4

Please review the following examples before continuing.
item_smiles=CCN(C)S(=O)(=O)Nc1ccc(F)c(C(=O)c2c[nH]c3ncc(-c4cnc(C5CC5)nc4)cc23)c1F qualitative_label="high range"
item_smiles=CC(C)(C)NC(=O)c1cncn1C1CCN(c2ccc(-c3nnc(C(F)(F)F)o3)cn2)CC1 qualitative_label="high range"
item_smiles=CC[C@H](C)[C@@H]([C@@H](CC(=O)N1CCC[C@H]1[C@H](OC)[C@@H](C)C(=O)N[C@@H](Cc1ccccc1)c1nccs1)OC)N(C)C(=O)[C@@H](NC(=O)[C@H](C(C)C)N(C)C)C(C)C qualitative_label="low range"
item_smiles=COc1cc2c(NC3CCN(C)CC3)nc(N3CCCN(C)CC3)nc2cc1OCCCN(C)C qualitative_label="low range"
item_smiles=CSc1ccc(C(=O)/C=C/c2cc(C)c(OC(C)(C)C(=O)O)c(C)c2)cc1 qualitative_label="mid range"
item_smiles=CC/C(=C(/c1ccc(/C=C/C(=O)O)cc1)c1ccc2[nH]ncc2c1)c1ccc(F)cc1Cl qualitative_label="high range"

Hello team, could you let me know which band the following compound falls into: CC[C@H](Nc1ncnc2nc[nH]c12)c1oc2ccccc2c(=O)c1-c1cccc(F)c1
mid range

Dear colleague, I would appreciate it if you could identify the bin for NC(=O)C1=C(O)[C@@]2(O)C(=O)C3=C(O)c4c(O)cccc4C[C@H]3C[C@H]2CC1=O and reply at your convenience.
low range

Consider COc1cc(N2CCN(C)CC2)ccc1Nc1ncc2c(n1)N(C)c1ccccc1C(=O)N2 . To which Z-AUC class does it belong?
mid range

In plain terms, what class is CC[C@H](NC(=O)[C@H](C)NC)C(=O)N1C[C@@H](O)C[C@H]1Cc1c(-c2[nH]c3cc(F)ccc3c2C[C@@H]2C[C@H](O)CN2C(=O)[C@H](CC)NC(=O)[C@H](C)NC)[nH]c2cc(F)ccc12 ?
high range
